# assaySummary: Plasma pharmacokinetics of ARRY-520
# Type: in vivo, human
# experimentalParameters: human, plasma, intravenous, 3.6 mg/m^2, Tmax, Schedule 2, Cycle 1 Day 5, 3.6 mg/m^2 (N=1); median (min-max)
assayEndpoint: Tmax (h)
Give just the numeric value; h need not be written.

Name the recorded Tmax for "CON(C)C(=O)N1N=C(c2cc(F)ccc2F)S[C@@]1(CCCN)c1ccccc1" .
1.08

====

# assaySummary: Plasma pharmacokinetics of ARRY-520
# Type: in vivo, human
# experimentalParameters: human, plasma, intravenous, Vss, Schedule 2, Cycle 1 Day 1, Schedule Total (N=18); mean (%CV)
assayEndpoint: Vd (L)
Form entry: value (L) — number only.

Fill in the blank: the reported Vd of "CON(C)C(=O)N1N=C(c2cc(F)ccc2F)S[C@@]1(CCCN)c1ccccc1" is ____.
306

====

# assaySummary: Plasma pharmacokinetics of ARRY-520
# Type: in vivo, human
# experimentalParameters: human, plasma, intravenous, 0.8 mg/m^2, AUC0–24, Schedule 2, Cycle 1 Day 1, 0.8 mg/m^2 (N=3); geometric mean (geometric %CV)
assayEndpoint: AUC(0-t)
Please append the unit to your numeric answer.

Which AUC(0-t) reading was recorded for the compound "CON(C)C(=O)N1N=C(c2cc(F)ccc2F)S[C@@]1(CCCN)c1ccccc1" ?
116 ng·h/mL

====

# assaySummary: Plasma pharmacokinetics of ARRY-520
# Assay type: in vivo, human
# experimentalParameters: human, plasma, intravenous, 1.2 mg/m^2, Cmax, Schedule 2, Cycle 1 Day 1, 1.2 mg/m^2 (N=6); geometric mean (geometric %CV)
assayEndpoint: Cmax (ng/mL)
# output: bare number, implied unit ng/mL

Entry CON(C)C(=O)N1N=C(c2cc(F)ccc2F)S[C@@]1(CCCN)c1ccccc1 [ARRY-520] has what Cmax?
18.8

====

# assaySummary: Plasma pharmacokinetics of ARRY-520
# Assay type: in vivo, human
# experimentalParameters: human, plasma, intravenous, 1.2 mg/m^2, AUC0–24, Schedule 2, Cycle 1 Day 5, 1.2 mg/m^2 (N=6); geometric mean (geometric %CV)
assayEndpoint: AUC(0-t) (ng·h/mL)
Provide the reading as a plain figure in ng·h/mL.

Item "CON(C)C(=O)N1N=C(c2cc(F)ccc2F)S[C@@]1(CCCN)c1ccccc1" has what recorded AUC(0-t)?
320

====

# assaySummary: Plasma pharmacokinetics of ARRY-520
# Type: in vivo, human
# experimentalParameters: human, plasma, intravenous, 0.8 mg/m^2, Tmax, Schedule 2, Cycle 1 Day 5, 0.8 mg/m^2 (N=3); median (min-max)
assayEndpoint: Tmax (h)
Number in h, nothing else.

Reported Tmax, molecule CON(C)C(=O)N1N=C(c2cc(F)ccc2F)S[C@@]1(CCCN)c1ccccc1 [ARRY-520] : ____
1.08

====

# assaySummary: Plasma pharmacokinetics of ARRY-520
# Format: in vivo, human
# experimentalParameters: human, plasma, intravenous, 1.5 mg/m^2, Tmax, Schedule 2, Cycle 1 Day 5, 1.5 mg/m^2 (N=6); median (min-max)
assayEndpoint: Tmax (h)
Write it as a number; the unit h goes unstated.

Name the recorded Tmax for CON(C)C(=O)N1N=C(c2cc(F)ccc2F)S[C@@]1(CCCN)c1ccccc1 [ARRY-520] .
1.02

====

# assaySummary: Plasma pharmacokinetics of ARRY-520
# Assay type: in vivo, human
# experimentalParameters: human, plasma, intravenous, 4.5 mg/m^2, CL, Schedule 1, Cycle 1 Day 1, 4.5 mg/m^2 (N=4); geometric mean (geometric %CV)
assayEndpoint: clearance (mL/min)
The reply should be a number in mL/min, with the unit left off.

Please report the recorded clearance for "CON(C)C(=O)N1N=C(c2cc(F)ccc2F)S[C@@]1(CCCN)c1ccccc1" .
49.2

====

# assaySummary: Plasma pharmacokinetics of ARRY-520
# Format: in vivo, human
# experimentalParameters: human, plasma, intravenous, 1.2 mg/m^2, Tmax, Schedule 2, Cycle 1 Day 5, 1.2 mg/m^2 (N=6); median (min-max)
assayEndpoint: Tmax (h)
Quick note: give the figure in h, leave out the unit.

GET /values?readout=Tmax&item= CON(C)C(=O)N1N=C(c2cc(F)ccc2F)S[C@@]1(CCCN)c1ccccc1 [ARRY-520]
1

====

# assaySummary: Plasma pharmacokinetics of ARRY-520
# Format: in vivo, human
# experimentalParameters: human, plasma, intravenous, 1.8 mg/m^2, Vss, Schedule 2, Cycle 1 Day 5, 1.8 mg/m^2 (N=2); mean
assayEndpoint: Vd (L)
Record the value in L, omitting the unit from your answer.

Bench note: what Vd did CON(C)C(=O)N1N=C(c2cc(F)ccc2F)S[C@@]1(CCCN)c1ccccc1 [ARRY-520] show?
127

====

# assaySummary: Plasma pharmacokinetics of ARRY-520
# Assay type: in vivo, human
# experimentalParameters: human, plasma, intravenous, 0.8 mg/m^2, Tmax, Schedule 2, Cycle 1 Day 1, 0.8 mg/m^2 (N=3); median (min-max)
assayEndpoint: Tmax
Number first, unit second.

Recorded Tmax of CON(C)C(=O)N1N=C(c2cc(F)ccc2F)S[C@@]1(CCCN)c1ccccc1 [ARRY-520] , please.
1 h

====

# assaySummary: Plasma pharmacokinetics of ARRY-520
# Assay type: in vivo, human
# experimentalParameters: human, plasma, intravenous, 1.2 mg/m^2, t1/2, Schedule 2, Cycle 1 Day 5, 1.2 mg/m^2 (N=6); median (min-max)
assayEndpoint: half-life (h)
Provide the reading as a plain figure in h.

Using the record for "CON(C)C(=O)N1N=C(c2cc(F)ccc2F)S[C@@]1(CCCN)c1ccccc1" , report its half-life.
94.9

====

# assaySummary: Plasma pharmacokinetics of ARRY-520
# Type: in vivo, human
# experimentalParameters: human, plasma, intravenous, 1.2 mg/m^2, CL, Schedule 2, Cycle 1 Day 1, 1.2 mg/m^2 (N=6); geometric mean (geometric %CV)
assayEndpoint: clearance (mL/min)
Kindly answer with a numeric value in mL/min, unit omitted.

Reported clearance, compound "CON(C)C(=O)N1N=C(c2cc(F)ccc2F)S[C@@]1(CCCN)c1ccccc1" : ____
130

====

# assaySummary: Plasma pharmacokinetics of ARRY-520
# Format: in vivo, human
# experimentalParameters: human, plasma, intravenous, 2.5 mg/m^2, MRT, Schedule 1, Cycle 1 Day 1, 2.5 mg/m^2 (N=3); median (min-max)
assayEndpoint: MRT (h)
Response body: numeric value in h, unit text excluded.

Give the measured MRT of "CON(C)C(=O)N1N=C(c2cc(F)ccc2F)S[C@@]1(CCCN)c1ccccc1" .
92.7

====

# assaySummary: Plasma pharmacokinetics of ARRY-520
# Assay type: in vivo, human
# experimentalParameters: human, plasma, intravenous, 4.5 mg/m^2, MRT, Schedule 1, Cycle 1 Day 1, 4.5 mg/m^2 (N=4); median (min-max)
assayEndpoint: MRT (h)
Kindly answer with a numeric value in h, unit omitted.

Give the measured MRT of CON(C)C(=O)N1N=C(c2cc(F)ccc2F)S[C@@]1(CCCN)c1ccccc1 [ARRY-520] .
142

====

# assaySummary: Plasma pharmacokinetics of ARRY-520
# Assay type: in vivo, human
# experimentalParameters: human, plasma, intravenous, CL, Schedule 2, Cycle 1 Day 1, Schedule Total (N=18); geometric mean (geometric %CV)
assayEndpoint: clearance (mL/min)
Please give a number only; it is taken to be in mL/min.

For the compound "CON(C)C(=O)N1N=C(c2cc(F)ccc2F)S[C@@]1(CCCN)c1ccccc1" , what clearance is on record?
119

====

# assaySummary: Plasma pharmacokinetics of ARRY-520
# Type: in vivo, human
# experimentalParameters: human, plasma, intravenous, 1.5 mg/m^2, Vss, Schedule 2, Cycle 1 Day 1, 1.5 mg/m^2 (N=6); mean (%CV)
assayEndpoint: Vd (L)
Give the number; L is assumed, so skip it.

Which Vd value belongs to CON(C)C(=O)N1N=C(c2cc(F)ccc2F)S[C@@]1(CCCN)c1ccccc1 [ARRY-520] ?
251

====

# assaySummary: Plasma pharmacokinetics of ARRY-520
# Assay type: in vivo, human
# experimentalParameters: human, plasma, intravenous, 1.5 mg/m^2, t1/2, Schedule 2, Cycle 1 Day 5, 1.5 mg/m^2 (N=6); median (min-max)
assayEndpoint: half-life

I'd like to know its half-life. The molecule in question is "CON(C)C(=O)N1N=C(c2cc(F)ccc2F)S[C@@]1(CCCN)c1ccccc1"
82.2 h

====

# assaySummary: Plasma pharmacokinetics of ARRY-520
# Assay type: in vivo, human
# experimentalParameters: human, plasma, intravenous, 1.5 mg/m^2, t1/2, Schedule 2, Cycle 1 Day 1, 1.5 mg/m^2 (N=6); median (min-max)
assayEndpoint: half-life (h)
Number only, in h; omit the unit.

Find the recorded half-life belonging to "CON(C)C(=O)N1N=C(c2cc(F)ccc2F)S[C@@]1(CCCN)c1ccccc1" and report it.
26.1

====

# assaySummary: Plasma pharmacokinetics of ARRY-520
# Assay type: in vivo, human
# experimentalParameters: human, plasma, intravenous, clearance, plasma PK, abstract summary
assayEndpoint: clearance

What value of clearance has been reported for the following molecule? "CON(C)C(=O)N1N=C(c2cc(F)ccc2F)S[C@@]1(CCCN)c1ccccc1"
~50 mL/min
